Assay: ATG_TCF_b_cat_CIS: Attagene CIS-FACTORIAL HepG2 Assay for human T-Cell-Factor with beta-catenin (TCF/b-cat) (AID 2282965)
Settings: HepG2 TCF/beta-catenin cis-reporter transcription, actives raise or lower the signal
The source made the active and inactive calls. Rule for the calls: active = hit-call score of the fitted dose curve at least 0.9, where 1 is the maximum; inactive = score below 0.9.
Tick one outcome: active, inactive

Q: Recorded test call requested for `Cc1c(N(C)C)c(=O)n(-c2ccccc2)n1C`
Result: inactive

Below: the item to evaluate.
Q: I'd appreciate the recorded outcome for `O=C(O)c1snc(Cl)c1Cl` from this test.
Result: active

* * *

Test: CCTE_Deisenroth_AIME_384WELL_CTox_Inactive: Cytotoxicity Assessment (CTOX) in CCTE's 384-well Estrogen Receptor Transactivation Assay without AIME metabolic competence (metabolism negative), Deisenroth Lab (AID 2284039);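 note: cell viability via live-cell protease substrate cleaved to fluorescent probe; cells exposed 24 h to medium preincubated 2 h with alginate-water beads without S9; loss of fluorescence signal means loss of viability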
Records with an inconclusive call do not appear. The source made the active and inactive calls. The calls were made as follows: active = hit-call score of the fitted dose curve at least 0.9, where 1 is the maximum; inconclusive = response in the unintended direction; inactive = score below 0.9.
API: response.call in active, inactive

Some solved entries appear below for comparison.
Q: Called result for CCC(=O)/C=C/C1C(C)=CCCC1(C)C (stereo not drawn)
Result: inactive

Q: Query: recorded result category for `NCCCCCCN` in this test
Result: inactive

Q: Short answer needed: outcome of this test for `O=C[C@@H](O)[C@H](O)[C@H](O)CO` ?
Result: inactive

Q: Kindly provide the recorded test outcome for the following molecule: NC(=O)NC1NC(=O)NC1=O (stereo not drawn)
Result: inactive

Q: GET /call?item= CCCCC(CC)COC(=O)/C=C\C(=O)OCC(CC)CCCC (stereo not drawn) returns the recorded outcome of this test.
Result: inactive

Q: What classification did `CN(C)CCCN` end up with in this test?
Result: inactive

Q: Outcome logged for `CCCCCCCCCCCCCOS(=O)(=O)O` in this assay:
Result: active

Please look at the following molecule next.
Q: Identify the outcome logged in this assay for the molecule shown: `O=C1C(c2[nH]c3ccc(S(=O)(=O)O)cc3c2O)=Nc2ccc(S(=O)(=O)O)cc21`
Result: inactive
